Molecular target: PPARγ (Homo sapiens)
Sequence (P37231 238-505 limits assumed): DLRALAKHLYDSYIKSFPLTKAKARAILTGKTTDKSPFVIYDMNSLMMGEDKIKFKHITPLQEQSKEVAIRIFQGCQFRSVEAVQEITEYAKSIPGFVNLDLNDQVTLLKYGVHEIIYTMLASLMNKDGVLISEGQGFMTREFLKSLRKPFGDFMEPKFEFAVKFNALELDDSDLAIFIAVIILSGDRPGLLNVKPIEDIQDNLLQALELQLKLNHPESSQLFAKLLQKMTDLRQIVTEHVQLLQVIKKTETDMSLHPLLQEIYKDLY
Counter-ions that a name gives are not always drawn.
Measured Quantity: Kd (nM)

a: CCCCCCCNC(=O)N(C)c1ncc(-c2ccc(C[C@H](OCC)C(=O)O)cc2)s1 [Example 7]
b: CCCCCCCNC(=O)N(C)c1cccc(-c2ccc(C[C@H](OCC)C(=O)O)cc2)n1 [Example 10, hydrochloride]
[in] Identify the entry with the larger Kd. Options: a and b Write down the label attached to your selection.
[out] a
